- ASSAY REMARKS: Solubility in aqueous solution (pH 2 to 10)
- Type: physicochemical
- STATED CONDITIONS: aqueous buffer, pH 4.0
Counter-ions that a name gives are not always drawn.
QUANTITY MEASURED: solubility

Input: State its solubility for this molecule: CC(=O)c1ccc2c(c1)[C@H](NC(=O)c1ccc(F)c(Cl)c1)[C@H](OC(=O)CN)C(C)(C)O2 [Example 6, hydrochloride]
Output: > 20 mg/mL

###

- ASSAY REMARKS: Solubility in aqueous solution (pH 2 to 10)
- Assay type: physicochemical
- STATED CONDITIONS: pH 3.5, aqueous buffer
QUANTITY MEASURED: solubility

CC(=O)OCO[C@H]1[C@@H](NC(=O)c2ccc(F)c(Cl)c2)c2cc(C(C)=O)ccc2OC1(C)C; < 250 µg/mL

Input: Recall and state the measured solubility for "CC(=O)O[C@H]1[C@@H](NC(=O)c2ccc(F)c(Cl)c2)c2cc(C(C)=O)ccc2OC1(C)C" .
Output: < 250 µg/mL

###

- ASSAY REMARKS: Solubility in aqueous solution (pH 2 to 10)
- Assay type: physicochemical
- STATED CONDITIONS: pH 5.7, aqueous buffer
QUANTITY MEASURED: solubility

CC(=O)c1ccc2c(c1)[C@H](NC(=O)c1ccc(F)c(Cl)c1)[C@H](OCOP(=O)(O)O)C(C)(C)O2; > 200 mg/mL

Kindly review the next compound as well.
Input: For the compound "CC(=O)c1ccc2c(c1)[C@H](NC(=O)c1ccc(F)c(Cl)c1)[C@H](OP(=O)(O)O)C(C)(C)O2" , give its reported solubility.
Output: > 50 mg/mL

###

- ASSAY REMARKS: Solubility in aqueous solution (pH 2 to 10)
- Format: physicochemical
- STATED CONDITIONS: pH 4.2, aqueous buffer
QUANTITY MEASURED: solubility

Input: Query solubility for CC(=O)c1ccc2c(c1)[C@H](NC(=O)c1ccc(F)c(Cl)c1)[C@H](OC(=O)CNC(C)C)C(C)(C)O2.Cl [Example 11]
Output: > 10000 µg/mL

###

- ASSAY REMARKS: Solubility in aqueous solution (pH 2 to 10)
- Format: physicochemical
- STATED CONDITIONS: aqueous buffer, pH 3.0
QUANTITY MEASURED: solubility

Input: Dear colleague, please send me the reported solubility for CC(=O)c1ccc2c(c1)[C@H](NC(=O)c1ccc(F)c(Cl)c1)[C@H](OCOC(=O)CN(C)C)C(C)(C)O2 [Example 5] when you can.
Output: > 2000 µg/mL

###

- ASSAY REMARKS: Solubility in aqueous solution (pH 2 to 10)
- Format: physicochemical
- STATED CONDITIONS: pH 3.6, aqueous buffer
Counter-ions that a name gives are not always drawn.
QUANTITY MEASURED: solubility

Input: Give the reported value of solubility for this record: CC(=O)c1ccc2c(c1)[C@H](NC(=O)c1ccc(F)c(Cl)c1)[C@H](OC(=O)CN(C)C)C(C)(C)O2 [Example 2, hydrochloride]
Output: > 20 mg/mL

###

For each of the compounds below, state its solubility.
- ASSAY REMARKS: Solubility in aqueous solution (pH 2 to 10)
- Format: physicochemical
- STATED CONDITIONS: pH 4.4, aqueous buffer
Counter-ions that a name gives are not always drawn.

CCCNCC(=O)O[C@H]1[C@@H](NC(=O)c2ccc(F)c(Cl)c2)c2cc(C(C)=O)ccc2OC1(C)C.Cl; > 10 mg/mL

Attention now turns to another entry.
Input: Provide solubility value for the following compound: CNCC(=O)O[C@H]1[C@@H](NC(=O)c2ccc(F)c(Cl)c2)c2cc(C(C)=O)ccc2OC1(C)C [Example 7, hydrochloride]
Output: > 20 mg/mL
